Test system: HCV 1b_Huh-Luc/Neo-ET cell line persistently expressing a bicistronic genotype 1b replicon in Huh 7 cells
Test: HCV replicon assay (luciferase readout)
Format: cell-based
Settings: Hepatitis C virus, Huh-7, 72 h, read-out: Inhibition of HCV genotype 1b
Experimental: Biological activity of the compounds of the invention was determined using an HCV replicon assay. The HCV 1b_Huh-Luc/Neo-ET cell line persistently expressing a bicistronic genotype 1b replicon in Huh 7 cells was obtained from ReBLikon GMBH. This cell line was used to test compound inhibition using luciferase enzyme activity readout as a measurement of compound inhibition of replicon levels. […] EC50 values of compounds are determined several times in the replicon assay. […]
Assign EC50 to each entry below.

Data request: # input molecule: O=C(N[C@@H](C(=O)N1CCC[C@H]1C(=O)NCCc1ccc(C#Cc2cnc([C@@H]3CCCN3C(=O)[C@H](NC(=O)C3CC3)c3ccccc3)[nH]2)cc1)c1ccccc1)C1CC1 [Compound 125] ; wanted: its EC50
Data returned: < 1 nM

Data request: Need EC50 of COC(=O)N[C@H](C(=O)N1CCC[C@H]1c1ncc(-c2ccc(C#Cc3ccc(-c4cnc([C@@H]5CCCN5C(=O)[C@H](NC(=O)N5CC[C@H](O)C5)c5ccccc5)[nH]4)cc3)cc2)[nH]1)C(C)C [Compound 974] , thanks.
Data returned: < 1 nM

Data request: So what's the measured EC50 for this one? CC(C)(C)OC(=O)N[C@@H](C(=O)N1CCC[C@H]1c1cc(-c2ccc(C#Cc3ccc(-c4cnc([C@@H]5CCCN5C(=O)[C@H](NC(=O)OC(C)(C)C)c5ccccc5)[nH]4)cc3)cc2)n[nH]1)c1ccccc1 [Compound 210]
Data returned: < 1 nM

Data request: Sample COC(=O)N[C@@H](C(=O)N1CCC[C@H]1c1ncc(C#Cc2ccc(C#Cc3cnc([C@@H]4CCCN4C(=O)[C@@H](c4ccccc4)N4CCCCC4)[nH]3)cc2)[nH]1)c1ccccc1 [Compound 312] — what was its EC50?
Data returned: < 1 nM

Data request: // EC50 lookup, key: COC(=O)N[C@@H](C(=O)N1CCC[C@H]1c1cc(-c2ccc(C#Cc3ccc(-c4cnc([C@@H]5CCCN5C(=O)[C@H](NC(=O)OC)c5ccccc5)[nH]4)cc3)cc2)n[nH]1)c1ccccc1 [Compound 219]
Data returned: < 1 nM

Data request: Which measured EC50 value corresponds to COC(=O)NCC(=O)N1CCC[C@H]1c1ncc(-c2ccc(C#Cc3ccc4nc([C@@H]5CCCN5C(=O)CNC(=O)OC)[nH]c4c3)cc2)[nH]1 [Compound 1049] ?
Data returned: 10 to 999 nM

Data request: Report EC50 for COC(=O)N[C@@H](C(=O)N1CCC[C@H]1c1ncc(-c2ccc(C#Cc3ccc(-c4cnc([C@@H]5CCCN5C(=O)[C@H](NC(=O)N5CC[C@@H](OC)C5)c5ccccc5)[nH]4)cc3)cc2)[nH]1)c1ccccc1 [Compound 271] please.
Data returned: < 1 nM

Data request: What measured EC50 goes with CN(C)[C@@H](C(=O)N1CCC[C@H]1c1ncc(C#Cc2ccc(-c3cnc([C@@H]4CCCN4C(=O)[C@H](NC(=O)C4CC4)c4ccccc4)[nH]3)cc2)[nH]1)c1ccccc1 [Compound 133] ?
Data returned: < 1 nM

Data request: Field request: EC50 | item: COC(=O)N[C@@H](C)C(=O)N1CCC[C@H]1c1ncc(-c2ccc(C#Cc3ccc4nc([C@@H]5CCCN5C(=O)[C@H](C)NC(=O)OC)[nH]c4c3)cc2)[nH]1 [Compound 1028]
Data returned: < 1 nM

Data request: // returns reported EC50 for input COC(=O)N[C@H](C(=O)N[C@@H](C)c1nc2ccc(C#Cc3ccc(-c4cnc([C@@H]5CCCN5C(=O)[C@@H](NC(=O)OC)C(C)C)[nH]4)cc3)cc2[nH]1)C(C)C [Compound 867]
Data returned: < 1 nM

Data request: Please give the measured EC50 for this molecule: COC(=O)N[C@H](C(=O)N1CCC[C@H]1c1ncc(-c2ccc(C#Cc3ccc(-c4cnc([C@H](C)NC(=O)[C@@H](c5ccccc5)N(C)C)[nH]4)cc3)cc2)[nH]1)C(C)C [Compound 983]
Data returned: < 1 nM

Data request: Field request: EC50 | item: COC(=O)N[C@H](C(=O)N1CCC[C@H]1c1ncc(-c2ccc(C#Cc3ccc(-c4cnc([C@@H]5CCCN5C(=O)[C@@H](c5ccccc5)N5CCOCC5)[nH]4)cc3)cc2)[nH]1)C(C)C [Compound 987]
Data returned: < 1 nM

Data request: Item COC(=O)N[C@H](C(=O)N1CCC[C@H]1c1nc2c([nH]1)-c1ccc(C#Cc3ccc(-c4cnc([C@@H]5CCCN5C(=O)[C@@H](NC(=O)OC)C5CCOCC5)[nH]4)cc3)cc1CCC2)C(C)C [Compound 1097] has what recorded EC50?
Data returned: < 1 nM

Data request: Which measured EC50 value corresponds to COC(=O)N[C@H](C(=O)N1CCC[C@H]1c1ncc(-c2ccc(C#Cc3ccc4nc([C@@H]5CCCN5)[nH]c4c3)cc2)[nH]1)C(C)C [Compound 1056] ?
Data returned: 10 to 999 nM

Data request: For CC(C)[C@H](NC(=O)N1CCOCC1)C(=O)N1CCC[C@H]1c1ncc(-c2ccc(C#Cc3ccc(-c4cnc([C@@H]5CCCN5C(=O)[C@@H](NC(=O)N5CCOCC5)C(C)C)[nH]4)cc3)cc2)[nH]1 [Compound 285] , what is its reported EC50?
Data returned: > 1000 nM

Data request: Can you look up the measured EC50 of O=C(N[C@@H](C(=O)N1CCC[C@H]1c1nc(-c2ccc3cc(C#Cc4cnc([C@@H]5CCCN5C(=O)[C@H](NC(=O)N5CC[C@H](O)C5)c5ccccc5)[nH]4)ccc3c2)c[nH]1)c1ccccc1)N1CC[C@H](O)C1 [Compound 806] for me?
Data returned: 1 to 9.9 nM

Data request: Look up EC50: COC(=O)N[C@H](C(=O)N[C@@H](C)c1ncc(-c2ccc(C#Cc3ccc(-c4cnc([C@@H]5CCCN5C(=O)[C@H](C(C)C)N(C)C)[nH]4)cc3)cc2)[nH]1)C(C)C [Compound 963]
Data returned: 1 to 9.9 nM

Data request: Report EC50 for C[C@H](NC(=O)[C@@H]1CCCN1C(=O)[C@H](NC(=O)C1CC1)c1ccccc1)c1ccc(C#Cc2ccc(-c3cnc([C@@H]4CCCN4C(=O)[C@H](NC(=O)C4CC4)c4ccccc4)[nH]3)cc2)cc1 [Compound 191] please.
Data returned: < 1 nM

Data request: Any idea what its EC50 is? The molecule is CC(=O)N[C@@H](C(=O)N1CCC[C@H]1c1ncc(-c2ccc(C#Cc3ccc(-c4cnc([C@@H]5CCCN5C(=O)[C@H](NC(C)=O)c5ccccc5)[nH]4)cc3)cc2)[nH]1)c1ccccc1 [Compound 158]
Data returned: < 1 nM
